Test system: HCT-15 colon
Assay: NCI-60 one-dose screen, 48 h
Conditions: 10 µM unless noted
Experimental: Growth inhibition of the HCT-15 human tumor cell line is measured as a screen for anti-cancer activity. Cells are grown in 96 well plates and exposed to the test compound for 48 hours. Compounds are tested at a single concentration, which is 10^-5 M for most compounds. The reported endpoint is percent growth (GI% or GIPRCNT), where numbers from 0 - 100% represent growth inhibition, and numbers from -100% - 0 represent cell death. For example, a value of 40 represents 60% growth inhibition. […]
The panel holds about 83,000 compounds, 20% with a hit somewhere; the sample as a whole holds those more often. Calls of active or inactive are those of the source. How the source made its calls: active means growth percent below 10; inactive means the rest.
Classes used: active, inactive

{"columns": ["Compound", "Qualitative label"],
 "data": [
  ["CCCc1cc(=O)oc2c3c(c4c(c12)OC(C)(C)CC4)OC(C)[C@H](C)[C@@H]3O (stereo partly specified)", "inactive"],
  ["O=C1c2ccccc2Cc2cccc(Cl)c21", "inactive"],
  ["CN(C)CCSC1=Nc2ccc(Cl)cc2C(c2ccccc2Cl)N(C)C1 (stereo unspecified)", "inactive"],
  ["CCOC(=O)c1c(C)[nH]c2ccc(O)cc12", "inactive"],
  ["Cc1ccc2cccc(OC(=O)Nc3cccc(C(F)(F)F)c3)c2n1", "inactive"],
  ["O=C1C=CC(=O)N1C1CCCCCCCCCCC1", "inactive"],
  ["N#CCc1cccc2ccccc12", "inactive"],
  ["C/C(=N/NC(N)=S)c1ccc(C)cc1", "inactive"],
  ["CCCN(CCC)C(=O)c1ccc(C)cc1", "inactive"],
  ["CCCCCCCCCCCCCCCc1ccc(C(=O)C[n+]2ccccc2)cc1", "active"],
  ["CCCCCCCCCCCC[n+]1ccccc1 (tested in a mixture with another compound)", "inactive"],
  ["CCC[CH2][Sn]1([CH2]CCC)[O]C2C(CO)OC(n3ccc(N)nc3=O)C2[O]1 (stereo unspecified)", "active"],
  ["NC(=Nc1nc(-c2ccccn2)cc2ccccc12)c1ccccn1", "inactive"],
  ["c1ccc(-c2cccc(-c3ccccn3)n2)nc1", "inactive"],
  ["COC1=CC(=O)c2c(O)c3c(c(O)c2C1=O)CC(C)(O)OC3 (stereo unspecified)", "active"],
  ["CCOC(=O)NC(/C=C/c1ccccc1)NC(=O)OCC", "inactive"],
  ["C(=N\\Nc1ccc2ccccc2n1)/c1ccccn1", "inactive"],
  ["CCCCN(CCCC)CCCCCCCCCCO", "inactive"],
  ["Cc1cc(C(=C2C=CC(=Nc3ccccc3)C=C2)c2ccc(Nc3ccccc3)cc2)ccc1N", "active"],
  ["Cc1cc(=O)oc2cc(O)cc(O)c12", "inactive"],
  ["S=C(S)OCN1CCOCC1", "inactive"],
  ["O=C(/C=C/c1ccccc1)c1ccccc1O", "inactive"],
  ["CC(C)Nc1ccc(Nc2ccc(NC(C)C)cc2)cc1", "inactive"],
  ["C=C(C(N)=O)C(N)C(=O)O (stereo unspecified)", "inactive"],
  ["CC(=O)C1Cc2ccccc2C1=O (stereo unspecified)", "inactive"],
  ["Cc1cc(C(=O)c2ccc(Cl)cc2)ccc1O", "inactive"]
]}
